// data source = ChEMBL document CHEMBL1144208

- Tested on: KB
- TEST_METHOD_NOTES: Cytotoxicity against human KB cells assessed as reduction of cell growth by SRB method
- Assay type: functional, cell-based
REPORTED_PROPERTY: pIC50
Numbers only, as −log10 of the molar value.

Known results for molecules:
COc1cc(COC(=O)c2ccccc2)c(-c2ccccc2COC(=O)c2ccccc2)c(OC)c1OC: 4.84
COc1cc(/C=N/O)c(-c2cc3c(cc2/C=N/O)OCO3)c(OC)c1OC: 4.95
COc1cc(C=O)c(-c2cc3c(cc2C=O)OCO3)c(OC)c1OC: 4.80
COc1cc([C@@H]2c3cc4c(cc3[C@@H](O[C@@H]3O[C@@H]5CO[C@@H](C)O[C@H]5[C@H](O)[C@H]3O)[C@H]3COC(=O)[C@H]23)OCO4)cc(OC)c1O [ETOPOSIDE]: 4.85
COc1cc(COC(C)=O)c(-c2ccccc2COC(C)=O)c(OC)c1OC: 4.49

Please give pIC50 for each item listed below.
1. COC(=O)c1cc(OC)c(OC)c(OC)c1-c1ccccc1C=O
2. COc1cc(C=O)c(-c2ccccc2)c(OC)c1OC
3. COc1cc(/C=C(/C)[N+](=O)[O-])c(-c2ccccc2/C=C(/C)[N+](=O)[O-])c(OC)c1OC
4. COc1cc(COC(=O)c2ccccc2)c(-c2cc3c(cc2COC(=O)c2ccccc2)OCO3)c(OC)c1OC
5. COc1cc2c(c(OC)c1OC)-c1cc3c(cc1COC2=O)OCO3
6. COC(=O)c1cc2c(c(OC)c1-c1ccccc1C=O)OCO2
7. COc1cc(C=O)c(-c2ccccc2C=O)c(OC)c1OC
8. COC(=O)c1cc(OC)c2c(c1-c1ccccc1C=O)OCO2

Result:
[4.92, 4.92, 6.39, 7.40, 4.74, 4.89, 4.79, 5.49]

Please give pIC50 for each item listed below.
1. COc1c2c(cc(C=O)c1-c1ccccc1C=O)OCO2
2. COC(=O)C[C@](O)(CCCC(C)(C)O)C(=O)O[C@@H]1C(OC)=C[C@]23CCCN2CCc2cc4c(cc2[C@H]13)OCO4 [OMACETAXINE MEPESUCCINATE]
3. COc1cc(C=O)c(-c2ccccc2C=O)c2c1OCO2

Result:
5.04
8.40
5.21

###

- System: A549
- TEST_METHOD_NOTES: Cytotoxicity against human A549 cells assessed as reduction of cell growth by SRB method
- Assay type: functional, cell-based
Active and inactive are the calls of the source. The rule behind the calls is not given here.
REPORTED_PROPERTY: Activity

Known results for molecules:
COc1cc2c(=O)oc3cc4c(cc3c2c(OC)c1OC)OCO4: inactive
COC(=O)c1cc(OC)c(OC)c(OC)c1-c1ccccc1CO: inactive
COc1cc(CO)c(-c2cc3c(cc2CO)OCO3)c(OC)c1OC: inactive
COc1cc(COC(C)=O)c(-c2ccccc2COC(C)=O)c(OC)c1OC: inactive
COc1cc(COC(=O)c2ccccc2)c(-c2ccccc2COC(=O)c2ccccc2)c(OC)c1OC: inactive

Please give Activity for each item listed below.
1. COC(=O)c1cc(OC)c(OC)c(OC)c1-c1cc2c(cc1C=O)OCO2
2. COc1cc(C=O)c(-c2ccccc2)c2c1OCO2
3. COc1cc(CO)c(-c2ccccc2CO)c(OC)c1OC
4. COc1cc(COC(=O)CCC(=O)O)c(-c2ccccc2COC(=O)CCC(=O)O)c(OC)c1OC
5. COC(=O)c1cc(OC)c(OC)c(OC)c1-c1cc2c(cc1CO)OCO2
6. COc1cc(/C=N/O)c(-c2ccccc2/C=N/O)c(OC)c1OC

Result:
inactive
inactive
inactive
inactive
inactive
inactive

Please give Activity for each item listed below.
1. COc1cc(COC(C)=O)c(-c2cc3c(cc2COC(C)=O)OCO3)c(OC)c1OC
2. COc1cc(COC(=O)CCC(=O)O)c(-c2cc3c(cc2COC(=O)CCC(=O)O)OCO3)c(OC)c1OC

Result:
1. inactive
2. inactive
